test: Toxicokinetics in the 28 day dog study of DIO-902 (with racemic ketoconazole group a); details: both, beagle, plasma, po, 20 mg/kg/day, Cmax, dogs, 20 mg/kg/day, day 28
ASSAY_METRIC: Cmax

Q. Given the entry `CC(=O)N1CCN(c2ccc(OC[C@@H]3CO[C@@](Cn4ccnc4)(c4ccc(Cl)cc4Cl)O3)cc2)CC1` , report its measured Cmax.
A. 9940 to 9950 ng/mL

* * *

assay: Toxicokinetics in the 28 day dog study of DIO-902 (with racemic ketoconazole group a); settings: female, beagle, plasma, po, 2 mg/kg, Cmax, dogs, 2 mg/kg oral, day 1, F
ASSAY_METRIC: Cmax (ng/mL)
Give the quantity in ng/mL, number only.

Q. Quick one: Cmax of CC(=O)N1CCN(c2ccc(OC[C@@H]3CO[C@@](Cn4ccnc4)(c4ccc(Cl)cc4Cl)O3)cc2)CC1 [DIO-902] ?
A. 450

* * *

assay: Toxicokinetics of racemic ketoconazole in another 28-day dog study (b); details: male, beagle, dog, plasma, po, 10 mg/kg, Drug concentration in plasma, dogs, study b, powder, 10 mg/kg oral, day 1, M, 1 h
ASSAY_METRIC: concentration at 1 h (ng/mL)
Just the number please, in ng/mL, no unit attached.

Q. Fill in: concentration at 1 h of CC(=O)N1CCN(c2ccc(OCC3COC(Cn4ccnc4)(c4ccc(Cl)cc4Cl)O3)cc2)CC1 (racemic) [Racemic ketoconazole] is ___
A. 380

* * *

assay: Toxicokinetics of racemic ketoconazole in another 28-day dog study (b); conditions: male, beagle, dog, plasma, po, 10 mg/kg, AUC(0-12), dogs, study b, powder, 10 mg/kg oral, day 1, M; footnote: AUC data is for 0-24 h
ASSAY_METRIC: AUC(0-t)
Write your answer as a measured quantity: the number, then the unit.

Q. Give the measured AUC(0-t) of CC(=O)N1CCN(c2ccc(OCC3COC(Cn4ccnc4)(c4ccc(Cl)cc4Cl)O3)cc2)CC1 (racemic) [Racemic ketoconazole] .
A. 9010 ng·h/mL

* * *

experiment: Toxicokinetics in the 28 day dog study of DIO-902 (with racemic ketoconazole group a); settings: male, beagle, plasma, po, 40 mg/kg, Drug concentration in plasma, dogs, group a: 40 mg/kg oral, day 1, M, 4 h
ASSAY_METRIC: concentration at 4 h
Form entry: enter the amount, then its unit.

Q. For the compound CC(=O)N1CCN(c2ccc(OCC3COC(Cn4ccnc4)(c4ccc(Cl)cc4Cl)O3)cc2)CC1 (racemic) [Racemic ketoconazole] , what concentration at 4 h is on record?
A. 10800 ng/mL

* * *

test: Toxicokinetics in the 28 day dog study of DIO-902 (with racemic ketoconazole group a); details: female, beagle, plasma, oral, 20 mg/kg, Drug concentration in plasma, dogs, group a: 20 mg/kg oral (after 40 mg/kg days 1-9, pause), day 28, F, 2 h;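 further: beagle dogs dosed orally once daily within a 28-day GLP study, 3 animals per sex per group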
ASSAY_METRIC: concentration at 2 h (ng/mL)
Please state the figure in ng/mL; there is no need to write the unit.

Q. Entry CC(=O)N1CCN(c2ccc(OCC3COC(Cn4ccnc4)(c4ccc(Cl)cc4Cl)O3)cc2)CC1 (racemic) [Racemic ketoconazole] : reported concentration at 2 h = ?
A. 270

* * *

experiment: Toxicokinetics of racemic ketoconazole in another 28-day dog study (b); settings: female, beagle, dog, plasma, po, 40 mg/kg, Drug concentration in plasma, dogs, study b, powder, 40 mg/kg oral, day 28, F, 8 h
ASSAY_METRIC: concentration at 8 h
Your answer should be a number followed by the unit of measure.

Q. What value of measured concentration at 8 h is listed for CC(=O)N1CCN(c2ccc(OCC3COC(Cn4ccnc4)(c4ccc(Cl)cc4Cl)O3)cc2)CC1 (racemic) [Racemic ketoconazole] ?
A. 40400 ng/mL
